TARGET OF ASSAY: F17fG receptor-binding domain (Escherichia coli)
PROTOCOL DESCRIPTION: Surface plasmon resonance steady-state affinity, immobilized F17fG
Experimental: The affinity profiles were determined by surface plasmon resonance (SPR) measurements using a BiaCore 3000 instrument (GE Healthcare). […] The proteins were covalently immobilized on CM5 sensor chips (Biacore AB) to an average density of 2000 RU (resonance units in pg/mm^2). On each chip, one flow cell was coated with a camel single domain antibody for use as a reference cell. The other three flow cells (Fc2, Fc3 and Fc4) were coated with three different F17G variants. […]
Listing: Kd of selected molecules

# MOLECULE, Kd
records = [
    ("CC(=O)N[C@H]1[C@H]([C@H](O)[C@H](O)CO)OC(O)(C(=O)O)C[C@@H]1O (some centres unmarked)", "> 100 mM"),
    ("CC(=O)N[C@@H]1[C@@H](O)[C@H](O)[C@@H](CO)O[C@H]1O", "1 to 10 mM"),
]

----------
TARGET OF ASSAY: F17aG receptor-binding domain (Escherichia coli, UniProt Q99003)
Construct: variants of the lectin domains with oligolysine (4Lys) tails have been constructed; made in house; host or cells: E. coli (periplasm)
Sequence (Q99003 23-199): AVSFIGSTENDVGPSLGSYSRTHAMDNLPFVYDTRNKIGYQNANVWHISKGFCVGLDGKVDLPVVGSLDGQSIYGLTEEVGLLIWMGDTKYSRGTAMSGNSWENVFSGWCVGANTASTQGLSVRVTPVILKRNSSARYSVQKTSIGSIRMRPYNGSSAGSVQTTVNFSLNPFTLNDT
PROTOCOL DESCRIPTION: biochemical
CONDITION CONTEXT: SPR steady state, 25 °C, pH 7.4; good fit for at least three related experiments; read-out: dissociation constant Kd, F17aG
Method: The affinity profiles were determined by surface plasmon resonance (SPR) measurements using a BiaCore 3000 instrument (GE Healthcare). […] The proteins were covalently immobilized on CM5 sensor chips (Biacore AB) to an average density of 2000 RU (resonance units in pg/mm^2). On each chip, one flow cell was coated with a camel single domain antibody for use as a reference cell. The other three flow cells (Fc2, Fc3 and Fc4) were coated with three different F17G variants. […]
pKd: −log10 of the molar value.

# MOLECULE, pKd
data = [
    ("CC(=O)N[C@H]1[C@H](O[C@@H]2[C@@H](OC[C@H]3OC(O)[C@@H](O)[C@@H](O[C@H]4O[C@H](CO)[C@@H](O)[C@H](O)[C@@H]4O[C@@H]4O[C@H](CO)[C@@H](O)[C@H](O)[C@H]4NC(C)=O)[C@@H]3O)O[C@H](CO)[C@@H](O)[C@@H]2O)O[C@H](CO)[C@@H](O)[C@@H]1O (some centres unmarked)", 2.52),
    ("CO[C@@H]1O[C@H](CO)[C@H](O[C@@H]2O[C@H](CO)[C@@H](O)[C@H](O)[C@H]2NC(C)=O)[C@H](O)[C@H]1O", 2.48),
    ("CO[C@H]1O[C@H](CO)[C@@H](O)[C@H](O)[C@H]1NC(C)=O", 2.01),
    ("CO[C@@H]1O[C@H](CO)[C@@H](O)[C@H](O)[C@H]1NC(C)=O", 2.92),
    ("CO[C@@H]1O[C@H](CO)[C@H](O)[C@H](O)[C@H]1O[C@@H]1O[C@H](CO)[C@@H](O)[C@H](O)[C@H]1NC(C)=O", 2.38),
    ("CC(=O)N[C@H]1[C@H](O[C@H]2[C@H](O)[C@@H](NC(C)=O)C(O)O[C@@H]2CO)O[C@H](CO)[C@@H](O)[C@@H]1O (some centres unmarked)", 2.48),
    ("CO[C@@H]1O[C@H](CO)[C@H](O)[C@H](O[C@@H]2O[C@H](CO)[C@@H](O)[C@H](O)[C@H]2NC(C)=O)[C@H]1O", 3.18),
    ("CO[C@@H]1O[C@H](CO[C@@H]2O[C@H](CO)[C@@H](O)[C@H](O)[C@H]2NC(C)=O)[C@H](O)[C@H](O)[C@H]1O", 2.55),
]

----------
TARGET OF ASSAY: F17aG lectin domain (Escherichia coli)
Sequence (Q99003 23-199): as above
CONDITION CONTEXT: CFG glycan array version 2; F17G at 200 µg/mL; SEM in parentheses
RECORDED METRIC: Relative Fluorescence Units (RFU), averaged over six replicates, F17aG

# STRUCTURE SMILES, READING
records = [
    ("CC(=O)N[C@H]1[C@H](O[C@H]2[C@@H](O)[C@@H](CO)O[C@H](OCCCN)[C@@H]2NC(C)=O)O[C@H](CO)[C@@H](O)[C@@H]1O", "25,971 (3,174) RFU"),
    ("CC(=O)N[C@H]1[C@H](OCCN)O[C@H](CO)[C@@H](O)[C@@H]1O", "15,621 (2,697) RFU"),
    ("CC(=O)N[C@H]1[C@H](OC[C@H]2O[C@H](OCCCN)[C@H](NC(C)=O)[C@@H](O[C@@H]3O[C@H](CO)[C@H](O)[C@H](O)[C@H]3O)[C@H]2O)O[C@H](CO)[C@@H](O)[C@@H]1O", "10,256 (1,410) RFU"),
    ("CC(=O)N[C@H]1[C@H](OCCCN)O[C@H](CO)[C@@H](O[C@@H]2O[C@H](CO[C@@H]3O[C@H](CO)[C@@H](O)[C@H](O)[C@H]3NC(C)=O)[C@H](O)[C@H](O[C@@H]3O[C@H](CO)[C@@H](O)[C@H](O)[C@H]3NC(C)=O)[C@H]2O)[C@@H]1O", "44,391 (3,949) RFU"),
    ("CC(=O)N[C@H]1[C@H](OCCCN)O[C@H](CO)[C@@H](O)[C@@H]1O", "22,909 (3,087) RFU"),
    ("CC(=O)N[C@H]1[C@H](OCCCN)O[C@H](CO)[C@@H](O[C@@H]2O[C@H](CO)[C@@H](O[C@@H]3O[C@H](CO)[C@@H](O)[C@H](O)[C@H]3NC(C)=O)[C@H](O)[C@H]2NC(C)=O)[C@@H]1O", "848 (88) RFU"),
    ("NCCCO[C@@H]1O[C@H](CO)[C@@H](O)[C@H](O)[C@H]1N", "554 (117) RFU"),
    ("CC(=O)N[C@H]1[C@H](O[C@H]2[C@@H](O)[C@@H](CO)O[C@@H](OCCCN)[C@@H]2O)O[C@H](CO)[C@@H](O)[C@@H]1O", "32,288 (4,175) RFU"),
]

----------
Listing: log10 Kd of selected compounds
TARGET OF ASSAY: F17eG receptor-binding domain
PROTOCOL DESCRIPTION: Surface plasmon resonance steady-state affinity, immobilized F17eG
Parameters: species or system Escherichia coli
CONDITION CONTEXT: SPR steady state, 25 °C, pH 7.4; good fit for at least three related experiments; read-out: dissociation constant Kd, F17eG
RECORDED METRIC: log10 Kd (log10 of the value in µM)

# COMPOUND, READING
rows = [
    ("CC(=O)N[C@H]1[C@H](O[C@@H]2[C@@H](OC[C@H]3OC(O)[C@@H](O)[C@@H](O[C@H]4O[C@H](CO)[C@@H](O)[C@H](O)[C@@H]4O[C@@H]4O[C@H](CO)[C@@H](O)[C@H](O)[C@H]4NC(C)=O)[C@@H]3O)O[C@H](CO)[C@@H](O)[C@@H]2O)O[C@H](CO)[C@@H](O)[C@@H]1O (some centres unmarked)", 3.48),
    ("CO[C@@H]1O[C@H](CO)[C@H](O[C@@H]2O[C@H](CO)[C@@H](O)[C@H](O)[C@H]2NC(C)=O)[C@H](O)[C@H]1O", 3.43),
    ("CO[C@@H]1O[C@H](CO[C@@H]2O[C@H](CO)[C@@H](O)[C@H](O)[C@H]2NC(C)=O)[C@H](O)[C@H](O)[C@H]1O", 3.58),
    ("CO[C@@H]1O[C@H](CO)[C@H](O)[C@H](O)[C@H]1O[C@@H]1O[C@H](CO)[C@@H](O)[C@H](O)[C@H]1NC(C)=O", 3.30),
    ("CO[C@@H]1O[C@H](CO)[C@H](O)[C@H](O[C@@H]2O[C@H](CO)[C@@H](O)[C@H](O)[C@H]2NC(C)=O)[C@H]1O", 2.45),
]

----------
TARGET OF ASSAY: F17fG receptor-binding domain (Escherichia coli, UniProt Q9RH91)
Sequence (Q9RH91 23-198): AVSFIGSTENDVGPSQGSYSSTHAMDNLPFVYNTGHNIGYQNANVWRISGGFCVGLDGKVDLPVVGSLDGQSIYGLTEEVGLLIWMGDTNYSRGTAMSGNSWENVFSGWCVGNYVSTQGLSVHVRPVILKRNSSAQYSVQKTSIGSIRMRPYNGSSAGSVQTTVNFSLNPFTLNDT
PROTOCOL DESCRIPTION: Surface plasmon resonance steady-state affinity, immobilized F17fG
CONDITION CONTEXT: SPR steady state, 25 °C, pH 7.4; read-out: Affinity range (Kd class), F17fG
pKd: −log10 of the molar value.
Listing: pKd of selected molecules

# MOLECULE, pKd
rows = [
    ("CC(=O)N[C@@H]1[C@@H](O)[C@H](O)[C@@H](COS(=O)(=O)O)O[C@H]1O", "< 1.00"),
    ("CC(=O)N[C@@H]1C(O)O[C@H](CO)[C@@H](O)[C@@H]1O (some centres unmarked)", "2.00 to 3.00"),
    ("CC(=O)N[C@H]1[C@H](Oc2ccc([N+](=O)[O-])cc2)O[C@H](CO)[C@@H](O)[C@@H]1O", "2.00 to 3.00"),
    ("CC(=O)N[C@H]1[C@H](O[C@H]2[C@H](O)[C@@H](NC(C)=O)C(O)O[C@@H]2CO)O[C@H](CO)[C@@H](O)[C@@H]1O (some centres unmarked)", "2.00 to 3.00"),
    ("CC(=O)N[C@H]1C(O)O[C@H](COP(=O)(O)O)[C@@H](O)[C@@H]1O (some centres unmarked)", "< 1.00"),
]
